Data origin, for the record: PubChem BioAssay (NCI)

Test system: RXF 393 renal
Test: NCI tumour cell line growth inhibition, 48 h
MEASUREMENT LABEL: GI50

See these solved cases before continuing.
Cc1ccc(NC(=O)/C=C/c2ccccc2)c(C(N)=O)c1; 2670 nM
COc1ccc(C2CC(c3cc(OC)c(OC)c(OC)c3)=NN2C(C)=O)cc1OCC(=O)Nc1nc2ccc(C(F)(F)F)cc2s1 (stereo not drawn); 2090 nM
CCN=C1C=CC(=C(c2ccc(N)cc2)c2ccc(N(CC)CC)c(C)c2)C=C1; 400 nM
CCN1CCC(CCOC)(CN2c3ccccc3Sc3ccc(Cl)cc32)C1 (stereo not drawn); 1770 nM
Nc1ncnc2[nH]ncc12; 860 nM

Now for the molecule whose GI50 we want.
Look at this molecule and give its reported GI50. Cc1c2cc[n+](CCN3CCCCC3)cc2c(C)c2c1[nH]c1ccc(O)cc12
3090 nM

* * *

Tested on: SF-539 CNS
Assay: NCI tumour cell line growth inhibition, 48 h
MEASUREMENT LABEL: TGI (µM)
Just the number please, in µM, no unit attached.

See these solved cases before continuing.
COc1cc2cc(C(=O)N3CC(CCl)c4ccc(O)cc43)[nH]c2c(OC)c1OC (stereo unspecified); 0.00881
COC(=O)C1=CSC2(S1)C(C(=O)OC)=CSc1c2ssc1=Nc1ccccc1 (stereo unspecified); 2.96
CN(C(=O)Cc1cc(Cl)c(Cl)cc1N=C=S)[C@H]1CCCC[C@@H]1N1CCCC1; 46

TGI of COc1cc2nc(N3CCCC3)nc(NCC3CCCCC3)c2cc1OC on SF-539 CNS?
2.15

TGI of Nc1c2c(nc3ccccc13)CCCCCC2 on SF-539 CNS?
32.3

TGI of COc1cccc(/C=C2/Sc3scc(-c4ccccc4)[n+]3C2=O)c1O on SF-539 CNS?
47.6

* * *

Tested on: HOP-62 NSCLC
Experiment: NCI tumour cell line growth inhibition, 48 h
MEASUREMENT LABEL: TGI (µM)
Just the number please, in µM, no unit attached.

Look at this compound and give its reported TGI. O=C(C1CCCCC1)[C@@H]1[C@]2(C(=O)NC3CCCCC32)[C@@H]2CCCN2[C@@]12C(=O)NC1CCC(Cl)CC12 (stereo not given in full)
287

Look at this compound and give its reported TGI. CN(C)c1ccc(/C=C\c2cccc[n+]2C)cc1
90.7

Look at this compound and give its reported TGI. C=CCOC1OC(CO[Si](C)(C)C(C)(C)C)C(OCc2ccccc2)C(OCc2ccccc2)C1OCc1ccccc1 (stereo not given)
48.3

Look at this compound and give its reported TGI. CCN1CCC(CCOC)(CN2c3ccccc3Sc3ccc(Cl)cc32)C1 (stereo not given)
3.13

Look at this compound and give its reported TGI. O=S(=O)(Sc1ccc(Cl)cc1)c1ccc(Cl)cc1
30.9

* * *

molecules and their reported TGI
Test system: LOX IMVI melanoma
Test: NCI tumour cell line growth inhibition, 48 h
Just the number please, in µM, no unit attached.

CNC(=O)OCc1c(COC(=O)NC)c(C)n(-c2ccc(Br)cc2)c1C; 23.9

Now for the molecule whose TGI we want.
Look at this molecule and give its reported TGI. COc1ccc(-c2cc(-c3ccccc3)nc(SCCCC(=O)NO)n2)cc1
1.95

* * *

System: KM12 colon
Assay: NCI tumour cell line growth inhibition, 48 h
MEASUREMENT LABEL: TGI (µM)
Just the number please, in µM, no unit attached.

O=C(C1CCCCC1)[C@@H]1[C@]2(C(=O)NC3CCCCC32)[C@@H]2CCCN2[C@@]12C(=O)NC1CCC(Cl)CC12 (stereo partly drawn); 273

TGI of CNC(=O)N1CN(c2ccccc2)C2(CCN(CCCC(=O)c3ccc(F)cc3)CC2)C1=O on KM12 colon?
45.9

* * *

Tested on: DLD-1 colon
Assay: NCI tumour cell line growth inhibition, 48 h
MEASUREMENT LABEL: TGI

See these solved cases before continuing.
CCOC(=O)C1Oc2ccc([N+](=O)[O-])c3c2C1(O)CCC3 (stereo unspecified); > 100 µM
CCOC(=O)C(=O)Nc1c(CC)cccc1C(C)C; > 100 µM
CCOC(=O)C1=C(O)C(=O)c2ccsc2C1=O; > 100 µM
O=S(=O)(c1ccccc1)C(CN1CCCCC1)S(=O)(=O)c1ccccc1; > 100 µM

Look at this compound and give its reported TGI. CCOC(=O)c1oc2ccc(OC)c3c2c1CCC3
> 100 µM

Look at this compound and give its reported TGI. CC12NN=NC1C(=O)NC2=O (stereo unspecified)
> 100 µM

* * *

Test system: SK-OV-3 ovarian
Experiment: NCI tumour cell line growth inhibition, 48 h
MEASUREMENT LABEL: log10 TGI (log10 of the value in µM)
Use the decimal logarithm of TGI (µM).

See these solved cases before continuing.
O=c1oc2ccccc2c(Nc2ccc3c(c2)S(=O)(=O)c2ccccc2O3)c1[N+](=O)[O-]; 1.83
O=C(c1ccccc1)C(CN1CCOCC1)c1ccccc1 (stereo not given); 1.25
COc1cc2c(cc1OC(=O)CC(C)O)C1C(OC2=O)C(OC(C)=O)C=C2CCN(C)[C@H]21 (stereo not given in full); 1.76

Look at this compound and give its reported log10 TGI. Cn1c2c(cc(S(=O)(=O)c3ccccc3)c1=O)CCc1c-2cnn1-c1ccc(Cl)cc1
0.72

Look at this compound and give its reported log10 TGI. O=C(C1CCCCC1)[C@@H]1[C@]2(C(=O)NC3CCCCC32)[C@@H]2CCCN2[C@@]12C(=O)NC1CCC(Cl)CC12 (stereo not given in full)
2.45

Look at this compound and give its reported log10 TGI. C/C(=N\Nc1ccc2ccccc2n1)c1ccccn1
1.13

Look at this compound and give its reported log10 TGI. Cc1c(/C=N/NC(=S)Nc2ccccc2Cl)c(=O)n(-c2ccccc2)n1C
1.92

Look at this compound and give its reported log10 TGI. CC(C)(C)c1ccc(OCCCCCCN2CCNCC2)cc1
1.39

* * *

Test system: DU-145 prostate
Experiment: NCI tumour cell line growth inhibition, 48 h; in the data active = GI50 below about 0.43 µM; inactive = the rest
Output constraint: value belongs to t (active), f (inactive)

Nc1ncnc2[nH]ncc12; t

Dear all, I need the recorded test outcome for O=C1C(=O)c2c(nc3ccc(Cl)cn23)-c2ccccc21 , thank you.
t

Dear all, I need the recorded test outcome for CC(C)(C)c1n[nH]c(=S)n(/N=C/c2ccc(F)c(Oc3ccccc3)c2)c1=O , thank you.
f

* * *

molecules and their reported TGI
System: MDA-MB-435
Assay: NCI tumour cell line growth inhibition, 48 h
Just the number please, in µM, no unit attached.

Look at this molecule and give its reported TGI. O=C(C1CCCCC1)[C@@H]1[C@]2(C(=O)NC3CCCCC32)[C@@H]2CCCN2[C@@]12C(=O)NC1CCC(Cl)CC12 (some centres undefined)
245

Look at this molecule and give its reported TGI. COC(=O)c1ccc2c(O)c(O)ccc2c1
3.3

Look at this molecule and give its reported TGI. CNC(=O)OCc1c(COC(=O)NC)c(C)n(-c2ccc(Br)cc2)c1C
34

Look at this molecule and give its reported TGI. COc1ccc(-c2cc(-c3ccccc3)nc(SCCCC(=O)NO)n2)cc1
3.11

Look at this molecule and give its reported TGI. Cc1cc(NCc2cc(Nc3ccnc4cc(Cl)ccc34)ccc2F)nc(N2CCCC2)n1
3.01

Look at this molecule and give its reported TGI. O=C(c1ccccc1)C(CN1CCOCC1)c1ccccc1 (centres undefined)
3.36

Look at this molecule and give its reported TGI. CCCn1c(C)nc2c1C(=O)c1ccccc1C2=O
32.9

Look at this molecule and give its reported TGI. O=C(NN1C(=O)CSC12CCCCC2)c1[nH]c2ccc(F)cc2c1-c1ccccc1
52.9

Look at this molecule and give its reported TGI. CN(C)CCCN1c2ccccc2CCc2ccc(Cl)cc21
6.91

Look at this molecule and give its reported TGI. N#C/C(=C\c1c(-c2ccccc2)[nH]c2ccccc12)S(=O)(=O)c1ccccc1
3.77

Look at this molecule and give its reported TGI. c1ccc2c(c1)c(NCCCCN1CCCCC1)cc1c3ccccc3c(NCCCCN3CCCCC3)cc21
12.3

Look at this molecule and give its reported TGI. CC(CN1CCN(CCOCCO)CC1)CN1c2ccccc2Sc2ccc(Cl)cc21 (centres undefined)
4.96

Look at this molecule and give its reported TGI. COC(=O)C1=CSC2(S1)C(C(=O)OC)=CSc1c2ssc1=Nc1ccccc1 (centres undefined)
5.09

Look at this molecule and give its reported TGI. CC(=O)NC1=C(OS(=O)(=O)c2ccc(C)cc2)CN(C)C1=O
16.7

Look at this molecule and give its reported TGI. O=C(N/N=C/c1ccc2c(c1)CCC2)c1ccccc1O
51.9

Look at this molecule and give its reported TGI. Cc1ccc(N2C(=O)C3c4[nH]c5ccccc5c4C4CCC(C(C)(C)C)CC4C3C2=O)cc1 (centres undefined)
42

Look at this molecule and give its reported TGI. CC(C)(C)c1ccc(OCCCCCCN2CCNCC2)cc1
11.9

Look at this molecule and give its reported TGI. C/C=C/[P+](c1ccccc1)(c1ccccc1)c1ccccc1
5.97
